Measured SKW3 WT vs KO anti-hKappa-FITC of individual entries
Target: T1, human CD4 on cells (SKW3 cells; human PBMCs) (human, UniProt P01730 26-458)
T1 construct: whole, on cells; SKW3 CD4 knockout cells served as the negative cell line; also called hCD4
Assay: FACS primary screen, non-clonal hybridoma supernatant, SKW3 vs SKW3 CD4 knockout cells, anti-human kappa FITC
Give just the number in fold; leave the unit off.

Binder	Property	Data Value
75110_13P21A (antibody, IgG1, V domains shown, Tested as non-clonal AlivaMab Mouse Kappa hybridoma supernatant: human variable domains and human kappa, mouse Fc) VH: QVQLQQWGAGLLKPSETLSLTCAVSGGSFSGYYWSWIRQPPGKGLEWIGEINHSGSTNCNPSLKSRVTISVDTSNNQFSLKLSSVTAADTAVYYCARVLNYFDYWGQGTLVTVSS VL: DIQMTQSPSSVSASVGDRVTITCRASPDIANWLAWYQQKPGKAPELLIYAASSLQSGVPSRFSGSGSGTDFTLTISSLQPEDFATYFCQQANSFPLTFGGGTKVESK	SKW3 WT vs KO anti-hKappa-FITC	2.4
75110_02I16A (antibody, IgG1, V domains shown, Tested as non-clonal AlivaMab Mouse Kappa hybridoma supernatant: human variable domains and human kappa, mouse Fc; also called 75110_02116A) VH: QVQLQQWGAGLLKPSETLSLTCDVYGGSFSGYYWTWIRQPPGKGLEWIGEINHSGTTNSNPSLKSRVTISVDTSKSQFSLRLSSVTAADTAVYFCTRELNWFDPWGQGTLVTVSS VL: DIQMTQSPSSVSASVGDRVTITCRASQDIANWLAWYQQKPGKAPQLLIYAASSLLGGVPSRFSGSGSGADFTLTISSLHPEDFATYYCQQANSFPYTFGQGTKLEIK	SKW3 WT vs KO anti-hKappa-FITC	1.7

Next item in the queue.
75110_04G16A (antibody, V domains shown, Tested as non-clonal AlivaMab Mouse Kappa hybridoma supernatant: human variable domains and human kappa, mouse Fc) VH: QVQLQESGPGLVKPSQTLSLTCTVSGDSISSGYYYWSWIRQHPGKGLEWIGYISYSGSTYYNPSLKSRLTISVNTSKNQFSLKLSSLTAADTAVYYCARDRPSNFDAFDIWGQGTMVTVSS VL: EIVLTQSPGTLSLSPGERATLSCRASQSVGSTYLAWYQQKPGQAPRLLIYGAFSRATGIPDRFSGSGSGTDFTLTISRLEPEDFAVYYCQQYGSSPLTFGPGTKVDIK has a reported SKW3 WT vs KO anti-hKappa-FITC of 2.3
